target: FLT1 (human) (UniProt P17948); test: radiometric filter-binding kinase assay, Kinase HotSpot; settings: compound 0.5 µM; ATP 10 µM
Sequence (P17948 whole entry, looked up): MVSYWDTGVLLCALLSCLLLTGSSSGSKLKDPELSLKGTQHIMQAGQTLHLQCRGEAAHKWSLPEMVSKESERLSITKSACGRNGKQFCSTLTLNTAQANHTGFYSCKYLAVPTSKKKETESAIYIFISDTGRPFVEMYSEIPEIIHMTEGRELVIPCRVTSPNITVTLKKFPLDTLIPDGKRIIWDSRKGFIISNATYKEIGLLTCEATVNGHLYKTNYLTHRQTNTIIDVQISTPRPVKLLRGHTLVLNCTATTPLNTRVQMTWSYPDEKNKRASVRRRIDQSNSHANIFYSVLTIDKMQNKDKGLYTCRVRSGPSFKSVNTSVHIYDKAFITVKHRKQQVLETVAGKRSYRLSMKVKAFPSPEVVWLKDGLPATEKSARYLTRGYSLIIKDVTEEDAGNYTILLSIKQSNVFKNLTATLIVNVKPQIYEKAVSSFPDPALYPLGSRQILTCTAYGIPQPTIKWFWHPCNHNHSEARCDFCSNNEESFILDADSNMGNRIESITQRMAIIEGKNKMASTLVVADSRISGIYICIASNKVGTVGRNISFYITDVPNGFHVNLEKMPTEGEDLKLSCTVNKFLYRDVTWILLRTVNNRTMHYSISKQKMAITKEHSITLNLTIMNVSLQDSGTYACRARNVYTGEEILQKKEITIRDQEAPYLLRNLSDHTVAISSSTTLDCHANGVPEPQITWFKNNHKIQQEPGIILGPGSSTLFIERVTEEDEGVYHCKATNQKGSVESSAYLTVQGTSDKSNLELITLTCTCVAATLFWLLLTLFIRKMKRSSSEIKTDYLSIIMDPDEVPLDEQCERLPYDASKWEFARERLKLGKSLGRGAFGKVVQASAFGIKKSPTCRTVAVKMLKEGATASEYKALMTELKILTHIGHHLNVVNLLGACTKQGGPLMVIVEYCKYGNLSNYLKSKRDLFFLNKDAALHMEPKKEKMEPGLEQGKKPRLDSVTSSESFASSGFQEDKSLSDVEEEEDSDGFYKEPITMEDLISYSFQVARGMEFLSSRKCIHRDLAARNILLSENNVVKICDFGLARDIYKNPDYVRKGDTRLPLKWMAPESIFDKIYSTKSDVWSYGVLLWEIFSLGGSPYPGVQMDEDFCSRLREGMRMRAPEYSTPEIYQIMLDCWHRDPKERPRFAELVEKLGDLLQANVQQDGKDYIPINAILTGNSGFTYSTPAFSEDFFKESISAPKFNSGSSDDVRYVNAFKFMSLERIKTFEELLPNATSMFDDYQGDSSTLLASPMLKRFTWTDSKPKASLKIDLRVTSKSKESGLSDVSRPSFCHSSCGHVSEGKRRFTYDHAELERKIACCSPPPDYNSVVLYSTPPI
readout: residual activity (%)

Cn1sc(=O)n(Cc2ccccc2)c1=O = 96.1
COc1cc2ncnc(N3CCN(C(=O)Nc4ccc(Oc5ccccc5)cc4)CC3)c2cc1OC = 79
Nc1nnc2[nH]c3ccccc3nc1-2 = 92.1
CN([C@@H](Cc1ccc(OS(=O)(=O)c2cccc3cnccc23)cc1)C(=O)N1CCN(c2ccccc2)CC1)S(=O)(=O)c1cccc2cnccc12 = 86.5

----------
target: SRMS (human); assay: radiometric filter-binding kinase assay, Kinase HotSpot; settings: compound 0.5 µM; ATP 10 µM
readout: residual activity (%)

O=C1Nc2ccccc2/C1=C1/Nc2ccccc2/C1=N\OCCC(O)CO (stereo unspecified) = 102
COc1cc2ncc(-c3ccccc3)nc2cc1OC = 102
O=C1Nc2ccccc2/C1=C1\Nc2ccccc2\C1=N/O = 102
COc1ccc(OC)c2c(=S)c3ccccc3[nH]c12 = 83.5
Cn1cnc2cc3c(Nc4cccc(Br)c4)ncnc3cc21 = 84
COc1cc2ncnc(N3CCN(C(=O)Nc4ccc(Oc5ccccc5)cc4)CC3)c2cc1OC = 93.6
CCn1cnc2c(Nc3cccc(Cl)c3)nc(N[C@@H]3CCCC[C@@H]3N)nc21 = 85.9
O=C1NC(=O)C(c2c[nH]c3ccccc23)=C1c1c[nH]c2ccccc12 = 82.4
CN([C@@H](Cc1ccc(OS(=O)(=O)c2cccc3cnccc23)cc1)C(=O)N1CCN(c2ccccc2)CC1)S(=O)(=O)c1cccc2cnccc12 = 103
O=C1NC(=O)/C(=C\c2ccc3nccnc3c2)S1 = 96.6
Cc1nc2cc3nc(-c4cccs4)cnc3cc2n1C = 95.4
O=C(CCCc1ccc(-c2ccccc2F)cc1)Nc1ccc(O)cc1 = 101
O=C1Cc2c([nH]c3ccc(Br)cc23)-c2ccccc2N1 = 105
COc1ccc(CNC(=O)Nc2ncc([N+](=O)[O-])s2)cc1 = 93.3
Oc1ccc(Nc2nc(-c3ccc(Cl)cc3)cs2)cc1 = 106
CN(C)C[C@H]1CCn2c(c(C3=C(c4cn(C)c5ccccc45)C(=O)NC3=O)c3ccccc32)C1 = 109

----------
target: CLK1 (human); assay: radiometric filter-binding kinase assay, Kinase HotSpot; conditions: compound 0.5 µM; ATP 10 µM
readout: residual activity (%)

Cn1sc(=O)n(Cc2ccccc2)c1=O = 112
O=C1NC(=O)/C(=C\c2ccc3nccnc3c2)S1 = 80.1
Cc1nc2cc3nc(-c4cccs4)cnc3cc2n1C = 111
Nc1nccc(-c2c(-c3ccc(F)cc3)ncn2C2CCNCC2)n1 = 98.2
O=C1NC(=O)C(c2c[nH]c3ccccc23)=C1c1c[nH]c2ccccc12 = 111
CCN(CC)CCCCN1c2ccccc2Oc2ccc(Cl)cc21 = 110
COc1cc2ncc(-c3ccccc3)nc2cc1OC = 102
CC(C)c1nn(-c2c(Cl)cccc2Cl)c2nc(Cc3ccc(OCCO)cc3)nc(O)c12 = 94.7
COc1cc2ncnc(N3CCN(C(=O)Nc4ccc(Oc5ccccc5)cc4)CC3)c2cc1OC = 89.4
COc1ccc(CNC(=O)Nc2ncc([N+](=O)[O-])s2)cc1 = 106
O=C1Nc2ccccc2/C1=C1\Nc2ccccc2\C1=N/O = 90.9
O=C1NC(=O)C(c2cn(CCCO)c3ncccc23)=C1c1cnccn1 = 88.5
Nc1nnc2[nH]c3ccccc3nc1-2 = 99.2
Cn1nc2c3c(cccc31)C(=O)c1ccccc1-2 = 92.7
O=C(Nc1cccc(Nc2cc(Nc3cccc(C(F)(F)F)c3)ncn2)c1)C1CC1 = 107
O=C(O)/C=C/c1cc(Br)c(Br)c(Br)c1Br = 98.5
Cn1cnc2cc3c(Nc4cccc(Br)c4)ncnc3cc21 = 102

----------
biological target: MAPKAPK3 (human) (UniProt Q16644); experiment: radiometric filter-binding kinase assay, Kinase HotSpot; conditions: compound 0.5 µM; ATP 10 µM
Sequence (Q16644 whole entry, looked up): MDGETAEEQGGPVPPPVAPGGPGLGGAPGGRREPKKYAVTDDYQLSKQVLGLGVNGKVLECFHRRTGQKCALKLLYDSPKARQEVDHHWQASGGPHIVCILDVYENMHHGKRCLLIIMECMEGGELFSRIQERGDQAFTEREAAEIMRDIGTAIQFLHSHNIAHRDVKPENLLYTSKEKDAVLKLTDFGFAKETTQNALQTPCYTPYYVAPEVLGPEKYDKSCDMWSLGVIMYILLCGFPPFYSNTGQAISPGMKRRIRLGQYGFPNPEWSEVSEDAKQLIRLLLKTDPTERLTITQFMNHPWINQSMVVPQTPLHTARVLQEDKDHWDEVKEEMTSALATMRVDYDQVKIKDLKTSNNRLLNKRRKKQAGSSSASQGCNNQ
readout: residual activity (%)

CN([C@@H](Cc1ccc(OS(=O)(=O)c2cccc3cnccc23)cc1)C(=O)N1CCN(c2ccccc2)CC1)S(=O)(=O)c1cccc2cnccc12 = 101
O=C1Nc2ccccc2/C1=C1\Nc2ccccc2\C1=N/O = 103
O=C1NC(=O)C(c2cn(CCCO)c3ncccc23)=C1c1cnccn1 = 103
COc1cc2ncnc(N3CCN(C(=O)Nc4ccc(Oc5ccccc5)cc4)CC3)c2cc1OC = 94.6
CCN(CC)CCCCN1c2ccccc2Oc2ccc(Cl)cc21 = 105
O=C(Nc1cccc(Nc2cc(Nc3cccc(C(F)(F)F)c3)ncn2)c1)C1CC1 = 104
Cn1cnc2cc3c(Nc4cccc(Br)c4)ncnc3cc21 = 94.4
COc1ccc(OC)c2c(=S)c3ccccc3[nH]c12 = 87.7
O=C(CCCc1ccc(-c2ccccc2F)cc1)Nc1ccc(O)cc1 = 91
CN(C)C[C@H]1CCn2c(c(C3=C(c4cn(C)c5ccccc45)C(=O)NC3=O)c3ccccc32)C1 = 97.9
COc1cc2ncc(-c3ccccc3)nc2cc1OC = 86.7
O=C1Nc2ccccc2/C1=C1/Nc2ccccc2/C1=N\OCCC(O)CO (configuration not stated) = 98.9
COc1ccc(CNC(=O)Nc2ncc([N+](=O)[O-])s2)cc1 = 103
Oc1ccc(Nc2nc(-c3ccc(Cl)cc3)cs2)cc1 = 94.1
CC(C)c1nn(-c2c(Cl)cccc2Cl)c2nc(Cc3ccc(OCCO)cc3)nc(O)c12 = 89.2
Nc1nnc2[nH]c3ccccc3nc1-2 = 101
Cn1nc2c3c(cccc31)C(=O)c1ccccc1-2 = 104
O=C(O)/C=C/c1cc(Br)c(Br)c(Br)c1Br = 86.3
Nc1nccc(-c2c(-c3ccc(F)cc3)ncn2C2CCNCC2)n1 = 99.4
Cc1nc2cc3nc(-c4cccs4)cnc3cc2n1C = 102
CCn1cnc2c(Nc3cccc(Cl)c3)nc(N[C@@H]3CCCC[C@@H]3N)nc21 = 91.3
O=C1Cc2c([nH]c3ccc(Br)cc23)-c2ccccc2N1 = 100
CC(=O)O/N=C1\C(=C2\C(=O)Nc3cc(Br)ccc32)Nc2ccccc21 = 105
O=C1NC(=O)C(c2c[nH]c3ccccc23)=C1c1c[nH]c2ccccc12 = 90.5
O=C1NC(=O)/C(=C\c2ccc3nccnc3c2)S1 = 104
CC(C)[C@H](CO)Nc1nc(Nc2cc(N)cc(Cl)c2)c2ncn(C(C)C)c2n1 = 98.4
Cn1sc(=O)n(Cc2ccccc2)c1=O = 105

----------
Overview of reported residual activity across a group of compounds:
target: CAMKK1 (human) (UniProt Q8N5S9); test: radiometric filter-binding kinase assay, Kinase HotSpot; conditions: compound 0.5 µM; ATP 10 µM
Sequence (Q8N5S9 whole entry, looked up): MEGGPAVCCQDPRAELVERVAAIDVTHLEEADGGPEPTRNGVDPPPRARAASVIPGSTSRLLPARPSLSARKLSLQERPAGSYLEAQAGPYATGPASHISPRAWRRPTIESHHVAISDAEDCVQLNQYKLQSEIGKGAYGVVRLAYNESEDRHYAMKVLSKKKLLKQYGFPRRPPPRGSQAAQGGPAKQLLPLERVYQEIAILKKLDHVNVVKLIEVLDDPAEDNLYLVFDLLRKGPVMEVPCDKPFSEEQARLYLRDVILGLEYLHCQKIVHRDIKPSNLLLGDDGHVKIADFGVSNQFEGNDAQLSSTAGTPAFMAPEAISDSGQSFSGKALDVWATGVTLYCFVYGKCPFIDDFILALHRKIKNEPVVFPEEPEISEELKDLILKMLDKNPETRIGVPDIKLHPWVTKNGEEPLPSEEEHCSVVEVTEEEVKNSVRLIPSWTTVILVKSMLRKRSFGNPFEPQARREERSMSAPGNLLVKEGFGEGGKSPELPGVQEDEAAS
readout: residual activity (%)

COc1cc2ncc(-c3ccccc3)nc2cc1OC = 98.9
COc1cc2ncnc(N3CCN(C(=O)Nc4ccc(Oc5ccccc5)cc4)CC3)c2cc1OC = 92.9
CN([C@@H](Cc1ccc(OS(=O)(=O)c2cccc3cnccc23)cc1)C(=O)N1CCN(c2ccccc2)CC1)S(=O)(=O)c1cccc2cnccc12 = 108
O=C1NC(=O)C(c2cn(CCCO)c3ncccc23)=C1c1cnccn1 = 107
COc1ccc(CNC(=O)Nc2ncc([N+](=O)[O-])s2)cc1 = 119
Cc1nc2cc3nc(-c4cccs4)cnc3cc2n1C = 127
CCn1cnc2c(Nc3cccc(Cl)c3)nc(N[C@@H]3CCCC[C@@H]3N)nc21 = 107
Cn1sc(=O)n(Cc2ccccc2)c1=O = 114
O=C1Nc2ccccc2/C1=C1/Nc2ccccc2/C1=N\OCCC(O)CO (centres undefined) = 26.2

----------
biological target: PASK (human); test: radiometric filter-binding kinase assay, Kinase HotSpot; conditions: compound 0.5 µM; ATP 10 µM
readout: residual activity (%)

O=C(Nc1cccc(Nc2cc(Nc3cccc(C(F)(F)F)c3)ncn2)c1)C1CC1 = 98.3
COc1ccc(CNC(=O)Nc2ncc([N+](=O)[O-])s2)cc1 = 106
CCN(CC)CCCCN1c2ccccc2Oc2ccc(Cl)cc21 = 76.6
Oc1ccc(Nc2nc(-c3ccc(Cl)cc3)cs2)cc1 = 131
O=C1Nc2ccccc2/C1=C1\Nc2ccccc2\C1=N/O = 94.1
CN(C)C[C@H]1CCn2c(c(C3=C(c4cn(C)c5ccccc45)C(=O)NC3=O)c3ccccc32)C1 = 93
O=C1NC(=O)C(c2c[nH]c3ccccc23)=C1c1c[nH]c2ccccc12 = 90.8
Cn1nc2c3c(cccc31)C(=O)c1ccccc1-2 = 94.6
O=C(CCCc1ccc(-c2ccccc2F)cc1)Nc1ccc(O)cc1 = 101
Cn1sc(=O)n(Cc2ccccc2)c1=O = 101
O=C1Nc2ccccc2/C1=C1/Nc2ccccc2/C1=N\OCCC(O)CO (centres undefined) = 89.8
Cn1cnc2cc3c(Nc4cccc(Br)c4)ncnc3cc21 = 89.8
O=C(O)/C=C/c1cc(Br)c(Br)c(Br)c1Br = 24.8
O=C1NC(=O)/C(=C\c2ccc3nccnc3c2)S1 = 87.7
CCn1cnc2c(Nc3cccc(Cl)c3)nc(N[C@@H]3CCCC[C@@H]3N)nc21 = 88
Nc1nccc(-c2c(-c3ccc(F)cc3)ncn2C2CCNCC2)n1 = 98.5
Cc1nc2cc3nc(-c4cccs4)cnc3cc2n1C = 110
CC(C)[C@H](CO)Nc1nc(Nc2cc(N)cc(Cl)c2)c2ncn(C(C)C)c2n1 = 106
COc1cc2ncnc(N3CCN(C(=O)Nc4ccc(Oc5ccccc5)cc4)CC3)c2cc1OC = 97.7
COc1ccc(OC)c2c(=S)c3ccccc3[nH]c12 = 90.1
O=C1Cc2c([nH]c3ccc(Br)cc23)-c2ccccc2N1 = 98
Nc1nnc2[nH]c3ccccc3nc1-2 = 93.7
CC(=O)O/N=C1\C(=C2\C(=O)Nc3cc(Br)ccc32)Nc2ccccc21 = 86.2
CC(C)c1nn(-c2c(Cl)cccc2Cl)c2nc(Cc3ccc(OCCO)cc3)nc(O)c12 = 95.7
